Quantity Measured: melting point

[
  {
    "Compound": "CCCCCN(CCCCC)S(=O)(=O)O[C@H]1CCC2C3CCc4cc(OS(N)(=O)=O)ccc4C3CC[C@@]21C (stereo partly drawn) [BLE99074]",
    "Experimental Value": "105 to 107 °C"
  },
  {
    "Compound": "CC(=O)NS(=O)(=O)O[C@H]1CCC2C3CCc4cc(OS(N)(=O)=O)ccc4C3CC[C@@]21C (stereo partly drawn) [BLE99065]",
    "Experimental Value": "76 to 80 °C (dec.)"
  }
]

[ask] // melting point lookup, key: CN(C)S(=O)(=O)O[C@H]1CCC2C3CCc4cc(OCc5ccccc5)ccc4C3CC[C@@]21C (stereo partly drawn)
[reply] 117 to 121 °C

----------
Provide the recorded % Inhibition of E1-STS activity in MCF-7 cells for the entries that follow.
Biological target: oestrone sulphatase (E1-STS) (Homo sapiens)
Sequence (P08842 22-583): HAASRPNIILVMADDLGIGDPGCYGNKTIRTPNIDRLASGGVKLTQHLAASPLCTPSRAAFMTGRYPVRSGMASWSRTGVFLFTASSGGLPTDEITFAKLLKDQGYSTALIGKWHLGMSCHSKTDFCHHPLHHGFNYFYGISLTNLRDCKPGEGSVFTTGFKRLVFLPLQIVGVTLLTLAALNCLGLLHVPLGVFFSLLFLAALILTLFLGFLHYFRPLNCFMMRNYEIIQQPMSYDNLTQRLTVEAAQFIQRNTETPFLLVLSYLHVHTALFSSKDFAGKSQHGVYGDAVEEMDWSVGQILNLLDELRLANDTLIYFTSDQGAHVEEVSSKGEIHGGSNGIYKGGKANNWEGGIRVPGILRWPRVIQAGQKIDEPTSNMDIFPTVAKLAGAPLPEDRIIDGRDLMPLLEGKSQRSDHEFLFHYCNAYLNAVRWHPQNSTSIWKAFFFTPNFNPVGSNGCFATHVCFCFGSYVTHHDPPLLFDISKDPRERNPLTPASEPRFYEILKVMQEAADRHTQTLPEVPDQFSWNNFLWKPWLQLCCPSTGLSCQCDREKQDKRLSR
Experiment: Inhibition of steroid sulphatase (E1-STS) activity in intact MCF-7 breast cancer cells
Type: cell-based
Details: 0.1 μM

[
  {
    "Molecule": "NS(=O)(=O)Oc1ccc(C23CC4CC(CC(c5ccc(O)cc5)(C4)C2)C3)cc1",
    "Experimental Value": "<10%"
  }
]

Provide each entry's % Inhibition of E1-STS activity in MCF-7 cells from the list below.
1. NS(=O)(=O)Oc1ccc(S(=O)(=O)c2ccc(OS(N)(=O)=O)cc2)cc1
2. NS(=O)(=O)Oc1cccc(C(=O)c2cccc(O)c2)c1 [Compound 29, 3′-hydroxybenzophenone-3-O-sulphamate]

[reply]
<10%
<10%

Provide each entry's % Inhibition of E1-STS activity in MCF-7 cells from the list below.
1. NS(=O)(=O)Oc1ccc(C=CC(=O)c2ccccc2)cc1 [Compound 7, Chalcone-4-O-sulphamate]
2. NS(=O)(=O)Oc1ccc(C(=O)C=Cc2ccccc2)cc1 [Compound 8, Chalcone-4′-O-sulphamate]

[reply]
1. <10%
2. <10%

----------
target: oestrone sulphatase (E1-STS) (Homo sapiens); test: Inhibition of steroid sulphatase (E1-STS) activity in intact MCF-7 breast cancer cells; type: cell-based; details: 10 μM
Quantity Measured: % Inhibition of E1-STS activity in MCF-7 cells (%)
Answers are plain numbers, in %.

Illustrative cases are given below, each with its answer.
[
  {
    "Compound": "NS(=O)(=O)Oc1ccc(C(=O)c2ccc(OS(N)(=O)=O)cc2)cc1 [Compound 3, Benzophenone-4,4′-O,O-bis-sulphamate]",
    "Tgt": "oestrone sulphatase (E1-STS) (Homo sapiens)",
    "Experimental Value": 98.69
  },
  {
    "Compound": "NS(=O)(=O)Oc1ccc2oc3ccccc3c2c1 [Compound 9, Dibenzofuran-2-O-sulphamate]",
    "Tgt": "oestrone sulphatase (E1-STS) (Homo sapiens)",
    "Experimental Value": 97.1
  }
]

[ask] // % Inhibition of E1-STS activity in MCF-7 cells lookup, key: NS(=O)(=O)Oc1cccc(C(=O)c2cccc(OS(N)(=O)=O)c2)c1 [Compound 28, Benzophenone-3,3′-O,O-bis-sulphamate]
[reply] 99.9
